Each recorded value in this set is attributed to ChEMBL document CHEMBL1275558.

Test: Cytotoxicity against human foreskin fibroblast cell infected with Toxoplasma gondii
Format: cell-based
Conditions: read-out: TD50 (the source's name)
Below is a list of entries, each paired with its recorded CC50 value.

- smiles-repr: "O=C1C(c2c(O)[nH]c3cc(Cl)ccc23)=Nc2ccccc21"
  CC50: "> 500 µM"
- smiles-repr: "O=C1C(c2c(O)[nH]c3ccc(S(=O)(=O)O)cc23)=Nc2ccccc21"
  CC50: "> 500 µM"
- smiles-repr: "O=Nc1c(-c2c(O)[nH]c3ccccc23)[nH]c2ccccc12"
  CC50: "> 500 µM"
- smiles-repr: "CC(=O)O/N=C1/C(=C2/C(=O)Nc3cc(Br)ccc32)Nc2ccccc21"
  CC50: "46 µM"
- smiles-repr: "O=C1Nc2cc(Cl)c(Br)cc2/C1=C1/Nc2ccccc2/C1=N\\O"
  CC50: "> 500 µM"
- smiles-repr: "O=C1Nc2ccccc2/C1=C1/Nc2ccccc2C1=O"
  CC50: "> 500 µM"
- smiles-repr: "O=C1c2cc(Cl)ccc2-n2c1nc1ccccc1c2=O"
  CC50: "360 µM"
- smiles-repr: "Cc1ccc2c(c1)C(=O)c1nc3ccccc3c(=O)n1-2"
  CC50: "> 500 µM"
- smiles-repr: "CC(=O)N1C(=O)/C(=C2\\Nc3ccccc3C2=O)c2ccccc21"
  CC50: "> 500 µM"
- smiles-repr: "O=C1C(c2c(O)[nH]c3ccc(F)cc23)=Nc2ccccc21"
  CC50: "> 500 µM"
- smiles-repr: "O=Nc1c(-c2c(O)[nH]c3cc(Cl)ccc23)[nH]c2ccccc12"
  CC50: "20 µM"
